Where do these numbers come from? They come from the nanobody polyreactivity screen of Harvey et al. (2022).

experiment-summary: yeast display, Sf9 membrane polyspecificity reagent, FACS + sequencing; frameworks hold sequencing errors
assay-metric: polyreactivity (PSR sort gate)

A selection of reference data follows.
[[record]]
monomer_sequence = "QVQLVESGGGLVQAGGSLRLSCAASGRTFPFYAMGWYRQAPGKEREFVASITRSGGSTNYADSVKGRFTISRDNAKNTVYLQMNSLKPEDTAVYYCNAGAVYWGYSRGWYERDYWGQGTQVTVSS"
assay_metric = "polyreactivity (PSR sort gate)"
measured_result = "high polyreactivity"

[[record]]
monomer_sequence = "QVHLVESGGGLVQAGGSLRLSCAASGSTFRHYAMGWYRQAPGKERELVAAISSRGGRTYYADSVKGRFTISRDNAKNTGYLQMNSQKPEDTAVYYCAADRFRLYVGGWWYDYWRQGTQVTVSS"
assay_metric = "polyreactivity (PSR sort gate)"
measured_result = "high polyreactivity"

[[record]]
monomer_sequence = "QVQLVESGGGLVQAGGSLRLSCAASGSTFNNYGMGWYTQAPGTERELVAAITKSGGITYYADSVKGRFTISRDNAKNTVYLQMNRLKREDTAVYYCAAAYTIYWFSYRVLYYYWGQGTQVTVSS"
assay_metric = "polyreactivity (PSR sort gate)"
measured_result = "low polyreactivity"

[[record]]
monomer_sequence = "QVQLVESGGGLVQAGGSLRLTCAASGRILVSYSMGWYRQAPGKERELVAAISRSGGSTYYADSVKGRFTISRDNAKNTVYLQMNSLKPEDTAVYYWNVYRFSRYDYWGQGTQVTVSS"
assay_metric = "polyreactivity (PSR sort gate)"
measured_result = "high polyreactivity"


Query: Recorded polyreactivity (PSR sort gate) for QLQLVESGGGLVQAGGSLPLTCAASGRTFARNAMGWYRQAPGKERELVARISRRAGSTYYADSVKGRFTISRDNAKNTVYLQMNSLKPAETAVYYCNAGPPYSYARDYWGQGTQVTVSS , please?
Response: high polyreactivity

Query: How about this sequence: QVQLVESGGGLVQAGGSLRLSCAASGRIFSYNAMGWYRQAPGKERELVAAISSGGSTYYADSVKGRFTISRDNAKNTVYLQMNSLKPEDTAVYYCAADRRYYSDMYYWGQGTQVTVSS
Response: low polyreactivity

Query: How about this sequence: QEQLQESGGGLVQAGGSLRLSCAASGSISGSSTMGWYRQAPGKERELVASIAVGANTNYADSAKGRFTISRDNAKNTVYLQMNSLKPEDTAVYYCAVDYYIYYFHYWGQGTQVTVSS
Response: high polyreactivity
